# target.desc: recombinant human Factor IX (rhFIX, Genetics Institute) (human) (UniProt P00740)
# Sequence (P00740 47-461 limits assumed): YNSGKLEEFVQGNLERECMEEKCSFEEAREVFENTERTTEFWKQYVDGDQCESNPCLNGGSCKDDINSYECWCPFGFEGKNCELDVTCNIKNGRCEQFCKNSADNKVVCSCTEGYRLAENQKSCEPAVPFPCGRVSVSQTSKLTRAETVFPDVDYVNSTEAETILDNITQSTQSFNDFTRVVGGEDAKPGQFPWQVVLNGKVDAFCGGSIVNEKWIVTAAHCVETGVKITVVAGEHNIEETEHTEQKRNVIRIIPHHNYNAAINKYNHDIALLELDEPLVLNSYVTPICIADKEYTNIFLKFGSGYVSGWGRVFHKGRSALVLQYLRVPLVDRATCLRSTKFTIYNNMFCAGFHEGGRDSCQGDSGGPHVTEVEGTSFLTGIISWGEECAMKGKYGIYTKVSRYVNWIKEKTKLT
# protocol.summary: titration calorimetry, 25° C. (calculated from the van't Hoff equation), 10 mM CaCl2
Parameter: pKd. Scope: all listed entries.
Schema: pKd number; meaning minus log10 of the concentration expressed in molar units.

Observe how each entry below is paired with its result.
binder="humanized anti-Factor IX monoclonal antibody SB 257732 (antibody, V domains shown) VH: QIQLVQSGSELKKPGASVKVSCKASGYTFTNYGMNWVRQAPGQGLEWMGWINTRNGKSTYVDDFKGRFVFSLDTSVSTAYLQISSLKAEDTAVYFCTREGNMDGYFPFTYWGQGTLVTVSS VL: QIVLTQSPSSLSASVGDRVTITCRASSSVNYMHWYQQKPGKAPKPWIYATSNLASGVPSRFSGSGSGTDYTLTISSLQPEDFATYYCQQWSINPRTFGGGTKLEIKR" quantity_kind=pKd numeric_value=8.40
binder="humanized anti-Factor IX monoclonal antibody SB 249413 (antibody, V domains shown) VH: QVQLVQSGSELKKPGASVKVSCKASGYTFTNYGMNWVRQAPGQGLEWMGWINTRNGKSTYVDDFKGRFVFSLDTSVSTAYLQISSLKADDTAVYYCAREGNMDGYFPFTYWGQGTLVTVSS VL: EIVLTQSPATLSLSPGERATLSCRASSSVNYMHWYQQRPGQAPRLLIYATSNLASGIPARFSGSGSGTDFTLTISSLEPEDFAVYYCQQWSINPRTFGGGTKVEIKR" quantity_kind=pKd numeric_value=8.22
binder="humanized anti-Factor IX monoclonal antibody SB 249415 (antibody, V domains shown) VH: QVQLVQSGSELKKPGASVKVSCKASGYTFTNYGMNWVRQAPGQGLKWMGWINTRNGKSTYVDDFKGRFVFSLDSSVSTAYLQISSLKADDTAVYYCTREGNMDGYFPFTYWGQGTLVTVSS VL: EIVLTQSPATLSLSPGERATLSCRASSSVNYMHWYQQRPGQAPKPWIYATSNLASGVPARFSGSGSGTDFTLTISSLEPEDFAVYYCQQWSINPRTFGGGTKVEIKR" quantity_kind=pKd numeric_value=8.52

Alright, here's another binder for you.
Assign pKd to the following record: humanized anti-Factor IX monoclonal antibody SB 249417 (antibody, V domains shown) VH: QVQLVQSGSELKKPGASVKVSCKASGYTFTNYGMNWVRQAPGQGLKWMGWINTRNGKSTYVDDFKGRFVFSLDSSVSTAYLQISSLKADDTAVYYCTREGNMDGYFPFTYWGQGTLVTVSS VL: QIVLTQSPSSLSASVGDRVTITCRASSSVNYMHWYQQKPGKAPKPWIYATSNLASGVPSRFSGSGSGTDYTFTISSLQPEDIATYYCQQWSINPRTFGQGTKVEIKR
8.40
